Reference source: patent US20130230533A1

Target: T1, monomeric monkey CD48 expressed with a tag consisting of 2 myc and one 6-His epitopes (monkey)
T1 construct: also called mfCD48-mmH; Monomeric monkey CD48-mmH
T1 chain: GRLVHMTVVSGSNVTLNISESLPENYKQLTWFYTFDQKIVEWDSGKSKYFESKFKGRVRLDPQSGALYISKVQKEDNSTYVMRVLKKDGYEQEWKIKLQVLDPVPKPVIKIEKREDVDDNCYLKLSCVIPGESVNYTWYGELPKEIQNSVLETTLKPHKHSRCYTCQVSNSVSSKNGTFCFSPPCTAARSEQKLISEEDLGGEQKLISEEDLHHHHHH
Assay: competition ELISA; blocks mfCD48-mmH binding to coated h2B4-hFc
Method: The ability of human anti-CD48 monoclonal antibodies to block human CD48 and monkey CD48 binding to the human cognate ligand, human 2B4, was measured using a competition sandwich ELISA (Table 8). […] After a 1 hr at 25° C. the wells were washed and bound human CD48 was detected with streptavidin conjugated with horse-radish peroxidase (HRP), and monkey CD48 was detected with an HRP conjugated anti-myc polyclonal antibody. […]
ASSAY READOUT: IC50 (nM)

1) H2M1707N (antibody, V domains shown, Human variable domains, mouse IgG2 Fc (H2M)) VH: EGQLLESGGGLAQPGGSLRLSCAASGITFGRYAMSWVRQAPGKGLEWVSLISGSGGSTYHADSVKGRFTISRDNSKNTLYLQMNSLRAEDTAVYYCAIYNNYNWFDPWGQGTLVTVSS VL: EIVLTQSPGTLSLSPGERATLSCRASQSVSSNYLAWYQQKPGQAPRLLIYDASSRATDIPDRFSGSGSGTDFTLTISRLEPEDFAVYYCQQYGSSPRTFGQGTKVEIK : 0.023
2) H2M1811N (antibody, mouse IgG2, V domains shown, Human variable domains, mouse IgG2 Fc (H2M)) VH: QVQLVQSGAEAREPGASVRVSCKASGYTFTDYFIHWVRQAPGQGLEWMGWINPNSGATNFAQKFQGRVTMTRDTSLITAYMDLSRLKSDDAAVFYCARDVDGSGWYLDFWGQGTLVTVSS VL: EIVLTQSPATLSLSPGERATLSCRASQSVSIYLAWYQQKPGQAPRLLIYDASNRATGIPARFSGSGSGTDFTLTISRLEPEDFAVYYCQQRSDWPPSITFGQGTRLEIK : 0.22
3) H2M1763N (antibody, mouse IgG2, V domains shown, Human variable domains, mouse IgG2 Fc (H2M)) VH: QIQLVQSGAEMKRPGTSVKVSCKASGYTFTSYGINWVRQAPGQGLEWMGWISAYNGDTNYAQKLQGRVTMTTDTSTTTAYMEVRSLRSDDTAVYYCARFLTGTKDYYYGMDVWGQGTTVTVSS VL: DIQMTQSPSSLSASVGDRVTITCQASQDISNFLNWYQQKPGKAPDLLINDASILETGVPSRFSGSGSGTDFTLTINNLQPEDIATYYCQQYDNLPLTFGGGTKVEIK : 0.013
